protocol_notes: Efflux ratio of apparent permeability across basolateral to apical side over apical to basolateral side in dog MDCKII-MDR1 cells at 2 uM incubated for 2.5 hrs by LC-MS/MS analysis
Format: ADME, cell-based, Canis lupus familiaris, MDCK-MDR1
setup_conditions: MDCK-MDR1

{"structure_smiles": "NCc1n[nH]c(=O)c2ccc(-c3cnsc3)cc12", "efflux ratio at 2.5 h, 2 µM": 0.8}
{"structure_smiles": "Cc1ccc(-c2ccc3c(=O)[nH]nc(CN)c3c2)cn1", "efflux ratio at 2.5 h, 2 µM": 3.5}
{"structure_smiles": "Cn1ncc(-c2ccc3c(=O)[nH]nc(CN)c3c2)c1-c1ccccc1", "efflux ratio at 2.5 h, 2 µM": 20}
{"structure_smiles": "Cn1ncc(-c2ccc3c(=O)[nH]nc(CN)c3c2)c1-c1c(F)cccc1C#N", "efflux ratio at 2.5 h, 2 µM": 42}
{"structure_smiles": "Cn1ncc(-c2ccc3c(=O)[nH]nc(CN)c3c2)c1-c1c(F)cc2ccccc2c1C#N", "efflux ratio at 2.5 h, 2 µM": 85}
{"structure_smiles": "Cn1ncc(-c2ccc3c(=O)[nH]nc(CN)c3c2)c1-c1cccc(OC2CC2)c1C#N", "efflux ratio at 2.5 h, 2 µM": 104}
{"structure_smiles": "Cc1c(-c2ccc3c(=O)[nH]nc(CN)c3c2)cnn1C", "efflux ratio at 2.5 h, 2 µM": 0.6}
{"structure_smiles": "Cc1cccc(-c2c(-c3ccc4c(=O)[nH]nc(CN)c4c3)cnn2C)c1C#N", "efflux ratio at 2.5 h, 2 µM": 36}
{"structure_smiles": "NCc1n[nH]c(=O)c2ccc(-c3cnn(CCO)c3)cc12", "efflux ratio at 2.5 h, 2 µM": 0.9}
{"structure_smiles": "COc1cccc(-c2c(-c3ccc4c(=O)[nH]nc(CN)c4c3)cnn2C)c1C#N", "efflux ratio at 2.5 h, 2 µM": 20}
{"structure_smiles": "NCc1n[nH]c(=O)c2ccc(-c3cncs3)cc12", "efflux ratio at 2.5 h, 2 µM": 0.6}
{"structure_smiles": "Cn1ncc(-c2ccc3c(=O)[nH]nc(CN)c3c2)c1-c1sc2ccccc2c1C#N", "efflux ratio at 2.5 h, 2 µM": 58}
{"structure_smiles": "Cn1ncc(-c2ccc3c(=O)[nH]nc(CN)c3c2)c1-c1cccc(Cl)c1C#N", "efflux ratio at 2.5 h, 2 µM": 35}
{"structure_smiles": "Cn1ncc(-c2ccc3c(=O)[nH]nc(CN)c3c2)c1-c1c(Cl)ccc(OC2CC2)c1C#N", "efflux ratio at 2.5 h, 2 µM": 131}
{"structure_smiles": "Cn1ncc(-c2ccc3c(=O)[nH]nc(CN)c3c2)c1-c1ccccc1C#N", "efflux ratio at 2.5 h, 2 µM": 7}
{"structure_smiles": "Cn1ncc(-c2ccc3c(=O)[nH]nc(CN)c3c2)c1-c1c(F)ccc(OC2CC2)c1C#N", "efflux ratio at 2.5 h, 2 µM": 143}
{"structure_smiles": "CCCn1cc(-c2ccc3c(=O)[nH]nc(CN)c3c2)cn1", "efflux ratio at 2.5 h, 2 µM": 2.7}
{"structure_smiles": "CC(C)n1cc(-c2ccc3c(=O)[nH]nc(CN)c3c2)cn1", "efflux ratio at 2.5 h, 2 µM": 20.1}
{"structure_smiles": "Cn1ncc(-c2ccc3c(=O)[nH]nc(CN)c3c2)c1-c1cc2ccccc2cc1C#N", "efflux ratio at 2.5 h, 2 µM": 31}
{"structure_smiles": "CCn1cc(-c2ccc3c(=O)[nH]nc(CN)c3c2)cn1", "efflux ratio at 2.5 h, 2 µM": 6.2}
{"structure_smiles": "Cn1ncc(-c2ccc3c(=O)[nH]nc(CN)c3c2)c1-c1ccc2ccccc2c1C#N", "efflux ratio at 2.5 h, 2 µM": 99}
{"structure_smiles": "NCc1n[nH]c(=O)c2ccc(-c3cccnc3)cc12", "efflux ratio at 2.5 h, 2 µM": 0.7}
{"structure_smiles": "NCc1n[nH]c(=O)c2ccc(-c3cccnn3)cc12", "efflux ratio at 2.5 h, 2 µM": 0.9}
{"structure_smiles": "NCc1nnc(O)c2ccc(-c3ccccc3)cc12", "efflux ratio at 2.5 h, 2 µM": 0.8}
{"structure_smiles": "CCc1cccc(-c2c(-c3ccc4c(=O)[nH]nc(CN)c4c3)cnn2C)c1C#N", "efflux ratio at 2.5 h, 2 µM": 35}
{"structure_smiles": "Cn1ncc(-c2ccc3c(=O)[nH]nc(CN)c3c2)c1-c1cc(Cl)cc(OC2CC2)c1C#N", "efflux ratio at 2.5 h, 2 µM": 121}
{"structure_smiles": "Cc1cc(OC2CC2)c(C#N)c(-c2c(-c3ccc4c(=O)[nH]nc(CN)c4c3)cnn2C)c1", "efflux ratio at 2.5 h, 2 µM": 62}
{"structure_smiles": "NCc1n[nH]c(=O)c2ccc(-c3ccccn3)cc12", "efflux ratio at 2.5 h, 2 µM": 1.2}

---

tested_target: Protein arginine N-methyltransferase 5 (Homo sapiens, UniProt O14744)
Sequence (O14744 whole entry): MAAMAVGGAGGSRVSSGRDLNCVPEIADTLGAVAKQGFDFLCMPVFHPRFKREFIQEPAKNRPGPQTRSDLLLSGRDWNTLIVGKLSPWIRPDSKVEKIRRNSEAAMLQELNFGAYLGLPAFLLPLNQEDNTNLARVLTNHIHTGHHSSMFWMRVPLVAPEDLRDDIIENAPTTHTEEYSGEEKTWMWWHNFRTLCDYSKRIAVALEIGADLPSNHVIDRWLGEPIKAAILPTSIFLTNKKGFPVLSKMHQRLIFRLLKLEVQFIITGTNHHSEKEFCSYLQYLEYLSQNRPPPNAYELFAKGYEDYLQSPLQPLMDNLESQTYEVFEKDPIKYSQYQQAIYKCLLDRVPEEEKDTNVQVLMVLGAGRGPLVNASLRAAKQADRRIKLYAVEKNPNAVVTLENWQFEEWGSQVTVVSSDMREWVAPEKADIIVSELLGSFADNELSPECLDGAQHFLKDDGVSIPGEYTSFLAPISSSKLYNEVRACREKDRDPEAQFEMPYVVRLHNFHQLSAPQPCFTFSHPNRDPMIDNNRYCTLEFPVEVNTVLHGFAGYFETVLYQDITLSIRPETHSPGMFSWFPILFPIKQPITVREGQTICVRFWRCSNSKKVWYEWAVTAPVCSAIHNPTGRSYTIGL
protocol_notes: Inhibition of PRMT5 methyltransferase activity in human HCT-116 cells expressing wild type MTAP assessed as inhibition of PRMT5- mediated SDMA modification level incubated for 96 hrs by Western blot analysis
Assay type: cell-based
pIC50: −log10 of the molar value.

{"structure_smiles": "Cc1cccc(-c2c(-c3ccc4c(=O)[nH]nc(CN)c4c3)cnn2C)c1C#N", "tested_target": "Protein arginine N-methyltransferase 5 (Homo sapiens, UniProt O14744)", "inequality_operator": "=", "pIC50": 5.05}
{"structure_smiles": "Cn1ncc(-c2ccc3c(=O)[nH]nc(CN)c3c2)c1-c1ccccc1", "tested_target": "Protein arginine N-methyltransferase 5 (Homo sapiens, UniProt O14744)", "inequality_operator": "=", "pIC50": 5.01}
{"structure_smiles": "Cn1ncc(-c2ccc3c(=O)[nH]nc(CN)c3c2)c1-c1cccc(Cl)c1C#N", "tested_target": "Protein arginine N-methyltransferase 5 (Homo sapiens, UniProt O14744)", "inequality_operator": "=", "pIC50": 5.05}
{"structure_smiles": "Cn1ncc(-c2ccc3c(=O)[nH]nc(CN)c3c2)c1-c1sc2ccccc2c1C#N", "tested_target": "Protein arginine N-methyltransferase 5 (Homo sapiens, UniProt O14744)", "inequality_operator": "<", "pIC50": 6.00}
{"structure_smiles": "Cn1ncc(-c2ccc3c(=O)[nH]nc(CN)c3c2)c1-c1cccc(OC2CC2)c1C#N", "tested_target": "Protein arginine N-methyltransferase 5 (Homo sapiens, UniProt O14744)", "inequality_operator": "=", "pIC50": 5.18}
{"structure_smiles": "COc1cccc(-c2c(-c3ccc4c(=O)[nH]nc(CN)c4c3)cnn2C)c1C#N", "tested_target": "Protein arginine N-methyltransferase 5 (Homo sapiens, UniProt O14744)", "inequality_operator": "<", "pIC50": 5.00}
{"structure_smiles": "CCc1cccc(-c2c(-c3ccc4c(=O)[nH]nc(CN)c4c3)cnn2C)c1C#N", "tested_target": "Protein arginine N-methyltransferase 5 (Homo sapiens, UniProt O14744)", "inequality_operator": "=", "pIC50": 5.49}

---

protocol_notes: Lipophilicity, logD of the compound at pH 7.4
Type: physicochemical
setup_conditions: buffer
measurement_label: logD

{"structure_smiles": "Cn1cc(-c2ccc3c(=O)[nH]nc(CN)c3c2)cn1", "data_value": -0.5}

---

tested_target: Protein arginine N-methyltransferase 5 (Homo sapiens, UniProt O14744)
protocol_notes: Inhibition of PRMT5 methyltransferase activity in MTAP knockout human HCT-116 cells assessed as inhibition of PRMT5- mediated SDMA modification level incubated for 96 hrs by Western blot analysis
Assay type: cell-based
pIC50: −log10 of the molar value.
Output True for pIC50 not less than 7; output False otherwise.

{"structure_smiles": "Cn1ncc(-c2ccc3c(=O)[nH]nc(CN)c3c2)c1-c1ccccc1", "category": "False"}
{"structure_smiles": "Cn1ncc(-c2ccc3c(=O)[nH]nc(CN)c3c2)c1-c1cccc(OC2CC2)c1C#N", "category": "True"}
{"structure_smiles": "Cc1cc(OC2CC2)c(C#N)c(-c2c(-c3ccc4c(=O)[nH]nc(CN)c4c3)cnn2C)c1", "category": "True"}
{"structure_smiles": "Cn1ncc(-c2ccc3c(=O)[nH]nc(CN)c3c2)c1-c1cc(Cl)cc(OC2CC2)c1C#N", "category": "True"}
{"structure_smiles": "Cn1ncc(-c2ccc3c(=O)[nH]nc(CN)c3c2)c1-c1sc2ccccc2c1C#N", "category": "True"}
{"structure_smiles": "Cn1ncc(-c2ccc3c(=O)[nH]nc(CN)c3c2)c1-c1ccc2ccccc2c1C#N", "category": "True"}
{"structure_smiles": "Cn1ncc(-c2ccc3c(=O)[nH]nc(CN)c3c2)c1-c1c(F)cccc1C#N", "category": "False"}

---

protocol_notes: Half life in beagle dog at 2 mg/kg, iv measured upto 24 hrs by LC-MS/MS analysis
Format: ADME, organism-based, Canis lupus familiaris
setup_conditions: in vivo
measurement_label: half-life

{"structure_smiles": "Cn1ncc(-c2ccc3c(=O)[nH]nc(CN)c3c2)c1-c1c(F)c(Cl)cc(OC2CC2)c1C#N", "data_value": "4.8 h"}
{"structure_smiles": "Cn1ncc(-c2ccc3c(=O)[nH]nc(CN)c3c2)c1-c1c(F)cc2ccccc2c1C#N", "data_value": "3.9 h"}
